- Tested on: VDR:RXRa (NR concentration 270 nM, RXRa partner concentration 90 nM)
- protocol.text: PBM binding z-score (relative to random genomic background probes); higher = stronger binding; sequences stand for … in GC…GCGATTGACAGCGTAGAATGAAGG
Label -1 if PBM binding z-score falls below 0.3; label 1 in every other case.

### Prompt Check the entry `TCTATTAGTTGATTAGGGCAACCGGAACAGCGGA` : does PBM binding z-score equal or exceed 0.3?
### Response 1

### Prompt # check: PBM binding z-score of `CAAACTAGGTCACAGAGGTGAAAGTCCGTGCGTA` is greater than or equal to 0.3
### Response 1

### Prompt Hi, just wondering whether `TCTCAAAGTTCAAAGGTAACGTAAGTATCCACAC` shows PBM binding z-score of 0.3 or higher.
### Response 1

### Prompt Does the sequence `CCTACTGGGCCATCAGGACATTGATATCAACGTT` have recorded PBM binding z-score that is 0.3 or more?
### Response -1

### Prompt Record `ATCTCAAGGTAAAAGTTCAGTGAATCCCGAGGAT` ; criterion: PBM binding z-score no lower than 0.3. Met?
### Response 1

### Prompt Please indicate if the recorded PBM binding z-score for `CGAACTAGGTCATCCTGGACAGTGAATACATTGA` meets or exceeds 0.3.
### Response 1

### Prompt I'd appreciate it if you could say whether `AGTCAAAGTTCACTAGCTAACGTAAGATTCAGCT` has PBM binding z-score at least equal to 0.3.
### Response 1

### Prompt Does `CCTCCTAGGTCATGGTCAGCTAATCTACAGTATG` have a reported PBM binding z-score of at least 0.3?
### Response 1

### Prompt Please check the record `GCGACTGGGGCAAAGCAGCTTACCATAAGGTTGG` and state if its PBM binding z-score is at or above 0.3.
### Response -1

### Prompt Is PBM binding z-score at least 0.3? Consider `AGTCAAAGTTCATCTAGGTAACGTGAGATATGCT`
### Response 1

### Prompt Evaluate `CCTACTGGGGCATAAGGTTACCATAAGCCAGCCC` : PBM binding z-score at minimum 0.3?
### Response -1

### Prompt Say whether `CCTAATGGGCCAAGGTCATTGATCAGTCAAAGCA` shows PBM binding z-score of 0.3 or more.
### Response 1

### Prompt Please tell me: is the sequence `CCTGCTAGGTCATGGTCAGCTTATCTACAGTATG` at or over 0.3 in terms of PBM binding z-score?
### Response 1

### Prompt Determine whether measured PBM binding z-score meets or exceeds 0.3 for `CATACAGGGCCAGCTAGGCCAGAGTAGGGACGGC`
### Response -1

### Prompt Identify whether the reported PBM binding z-score of the following sequence is 0.3 or greater: `AGTCAAAGTGCACTAGGTAACGTAAGATTCAGCT`
### Response -1

### Prompt In plain terms: is recorded PBM binding z-score at least 0.3 for `ATCTCTAGGTAACTAAGTTCAGTGAATGCCGAAC` ?
### Response 1

### Prompt Is PBM binding z-score at least 0.3? Consider `AGAATGAAGTTATACGTAGATCAGGGAAGAAAGT`
### Response -1

### Prompt Please tell me: is the sequence `TGAATTAGGTTATAAGATCAGGGAACGTTGCAAA` at or over 0.3 in terms of PBM binding z-score?
### Response -1
